measurement-target: Solute carrier family 12 member 5 (Homo sapiens)
Sequence (Q9H2X9 whole entry): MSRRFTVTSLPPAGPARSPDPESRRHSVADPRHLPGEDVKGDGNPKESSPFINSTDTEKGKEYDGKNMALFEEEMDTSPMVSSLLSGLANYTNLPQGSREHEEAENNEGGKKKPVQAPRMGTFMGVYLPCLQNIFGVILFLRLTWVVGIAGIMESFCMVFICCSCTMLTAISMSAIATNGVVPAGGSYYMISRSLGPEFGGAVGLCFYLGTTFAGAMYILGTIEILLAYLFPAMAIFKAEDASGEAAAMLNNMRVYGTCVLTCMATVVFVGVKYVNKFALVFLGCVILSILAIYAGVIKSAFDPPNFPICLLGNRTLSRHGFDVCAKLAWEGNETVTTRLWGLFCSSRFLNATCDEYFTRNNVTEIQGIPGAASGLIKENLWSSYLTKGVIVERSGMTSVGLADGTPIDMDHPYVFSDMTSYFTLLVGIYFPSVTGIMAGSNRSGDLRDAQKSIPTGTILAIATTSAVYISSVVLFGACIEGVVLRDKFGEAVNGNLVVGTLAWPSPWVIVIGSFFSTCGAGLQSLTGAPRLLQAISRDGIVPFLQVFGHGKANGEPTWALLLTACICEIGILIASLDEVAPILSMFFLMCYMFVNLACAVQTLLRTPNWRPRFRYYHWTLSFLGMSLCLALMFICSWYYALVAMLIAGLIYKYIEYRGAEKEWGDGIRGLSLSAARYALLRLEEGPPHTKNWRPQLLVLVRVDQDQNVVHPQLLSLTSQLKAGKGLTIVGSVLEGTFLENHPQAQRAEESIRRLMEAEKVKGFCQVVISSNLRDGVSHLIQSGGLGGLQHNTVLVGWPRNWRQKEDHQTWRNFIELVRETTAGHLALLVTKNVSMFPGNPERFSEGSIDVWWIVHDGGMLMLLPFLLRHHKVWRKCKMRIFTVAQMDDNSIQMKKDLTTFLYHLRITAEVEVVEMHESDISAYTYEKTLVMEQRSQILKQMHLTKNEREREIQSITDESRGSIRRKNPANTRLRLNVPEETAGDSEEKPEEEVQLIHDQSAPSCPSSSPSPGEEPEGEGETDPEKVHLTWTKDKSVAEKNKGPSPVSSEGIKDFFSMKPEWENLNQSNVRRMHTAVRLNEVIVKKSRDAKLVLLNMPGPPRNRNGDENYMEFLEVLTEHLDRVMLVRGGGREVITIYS
assay-text: modulation of KCC2 K-Cl transport – cell-based, assay 2, dose response (AID 1723)
observed-property: log10 of EC50 (log10 of the value in µM)
Reminder: these figures are log10 of reported EC50, in µM before transformation.

Previously resolved entries follow.
# value lookup — system Solute carrier family 12 member 5 (Homo sapiens), readout log10 of EC50, item "O=C(NC(=S)Nc1nc(-c2cccc([N+](=O)[O-])c2)cs1)c1ccccc1Cl"
2.14

Lab note: need log10 of EC50 for "NC(=S)NN=C1C(=O)N(Cc2ccc(F)cc2)c2ccccc21" on Solute carrier family 12 member 5 (Homo sapiens), anyone have it?
0.88

Which log10 of EC50 is reported with Solute carrier family 12 member 5 (Homo sapiens) for this entry: CC(=O)c1cccc(NC(=S)NC(=O)c2ccc(C)cc2)c1 [MLS000687464] ?
0.08

Notebook: pull reported log10 of EC50 for Solute carrier family 12 member 5 (Homo sapiens), entry "N=C1SCC(=O)N1c1ncc(Cc2cccc(Cl)c2)s1"
0.46

State its log10 of EC50 on Solute carrier family 12 member 5 (Homo sapiens): "CCOc1ccc2nc(Sc3cc(O)n(-c4cccc(OC)c4)c3O)sc2c1"
0.90

Further cases:
Request - read-out log10 of EC50 | tested on Solute carrier family 12 member 5 (Homo sapiens) | compound "O=C1OC(c2ccc(O)cc2)(c2ccc(O)cc2)c2ccccc21"
1.07

Write down the reported log10 of EC50 of COc1cc(NC(=S)NC(=O)c2ccco2)ccc1NC(=O)C(C)C [MLS000672338] , test system: Solute carrier family 12 member 5 (Homo sapiens).
0.90

Lookup: log10 of EC50 / Solute carrier family 12 member 5 (Homo sapiens) / CC(C)c1ccc(OCC(=O)NNC(=O)c2cnccn2)cc1 [MLS000332605]
1.19

Please tell me: log10 of EC50 of O=C(C=Cc1ccccc1)CC(=O)c1ccccc1O [MLS000627068] , system Solute carrier family 12 member 5 (Homo sapiens)?
1.80

Lookup: log10 of EC50 / Solute carrier family 12 member 5 (Homo sapiens) / "Cc1[nH]n2c(=O)cc(C(C)C)nc2c1-c1ccccc1"
1.32

# get_value(readout= log10 of EC50, system= Solute carrier family 12 member 5 (Homo sapiens)) for "S=c1nc(-c2ccc3c(c2)CCO3)cc[nH]1"
0.79

Kindly state the measured log10 of EC50 obtained for O=c1c2ccccc2[nH]c(=S)n1CCN1CCC(=C(c2ccc(F)cc2)c2ccc(F)cc2)CC1 [SMR000058550] with Solute carrier family 12 member 5 (Homo sapiens).
1.12

Provide the documented log10 of EC50 with Solute carrier family 12 member 5 (Homo sapiens) as the system for CC(=NNC(=O)c1ccc2c(c1)OCO2)c1ccc(Br)s1 [MLS000666595]
2.86

Write down the reported log10 of EC50 of "COC(=O)[C@@H](NC(=O)O[C@@H]1C(=O)c2ccc(OC)cc2O[C@H]1c1cccc(C(F)(F)F)c1)C(C)C" , test system: Solute carrier family 12 member 5 (Homo sapiens).
-0.29

Find log10 of EC50 (Solute carrier family 12 member 5 (Homo sapiens)) for the entry "CCOc1cccc(C(=O)NC(=S)Nc2cccc(C)c2)c1"
0.20

State its log10 of EC50 on Solute carrier family 12 member 5 (Homo sapiens): "S=C(NCCc1ccccc1)NN=Cc1cccc(Cl)c1Cl"
1.00

# value lookup — system Solute carrier family 12 member 5 (Homo sapiens), readout log10 of EC50, item "Oc1ccccc1CN=Nc1nc2ccccc2o1"
1.49

Find log10 of EC50 (Solute carrier family 12 member 5 (Homo sapiens)) for the entry "O=[N+]([O-])c1ccc(-c2cn(-c3ccccc3F)c(=S)[nH]2)cc1"
-0.21

Give Solute carrier family 12 member 5 (Homo sapiens) log10 of EC50 for "Fc1cccc(F)c1C=NNC(=S)Nc1cccnc1"
0.82

State its log10 of EC50 on Solute carrier family 12 member 5 (Homo sapiens): "COc1ccc(Cn2c(=S)[nH]c3ccccc32)cc1"
-0.40

Lab note: need log10 of EC50 for Cc1cccc(N2CCN(C(=O)CCCn3c(=S)[nH]c4cc5c(cc4c3=O)OCO5)CC2)c1C [MLS000095366] on Solute carrier family 12 member 5 (Homo sapiens), anyone have it?
1.05
